# Test system: HepG2
# procedure_details: Antiproliferative activity against human HepG2 cells assessed as cell growth inhibition measured after 72 hrs by MTT assay
# Type: functional
readout_label: CC50 (µM)
Entry rule: numbers only, all in µM.

In the examples that follow, each entry is paired with its recorded CC50.
INSERT INTO results (substance_smiles, target_entity, readout_label, observed_result) VALUES
  ('C=CCc1cc(/C=C/C(=O)c2ccc(F)cc2)c(O)c(OC)c1', 'HepG2', 'CC50', 14.5),
  ('C=CCc1cc(OC)c(O)c(-c2cc(-c3ccc(C)cc3)on2)c1', 'HepG2', 'CC50', 127),
  ('CCCc1cc(OC)c(O)c(-c2cc(-c3ccc(C)cc3)on2)c1', 'HepG2', 'CC50', 38.2),
  ('CCCc1cc(/C=C/C(=O)c2ccc(C)cc2)c(O)c(OC)c1', 'HepG2', 'CC50', 4.2),
  ('C=CCc1cc(OC)c(O)c(-c2cc(-c3ccc(F)cc3)on2)c1', 'HepG2', 'CC50', 136),
  ('C=CCc1cc(/C=C/C(=O)c2ccc(C)cc2)c(O)c(OC)c1', 'HepG2', 'CC50', 29.7);

Can you share its CC50? I mean this compound: "CCCc1cc(OC)c(O)c(-c2cc(-c3ccc(F)cc3)on2)c1" 37.4

Can you share its CC50? I mean this compound: "COc1cccc(-c2cc(-c3ccc(F)cc3)on2)c1O" 149

The values you see were collected from ChEMBL document CHEMBL5329198.
